- Test system: RXF 393
- Assay Overview: NCI tumour cell line growth inhibition, 48 h
Calls of active or inactive are those of the source. Rule as the data show it: active = GI50 up to about 1.1 µM and inactive = higher.
Select the matching outcome among 1 (yes) (active), 0 (no) (inactive)

Recorded test call requested for CCC(CCC(C)C1CCC2C3CC=C4CC(OC5OC(CO)C(O)C(O)C5O)CCC4(C)C3CCC12C)C(C)C (centres undefined)
0 (no)

Same question, `Cc1ccc(NC(=O)CSc2nnc(Cc3ccccc3)o2)c(C)c1` this time
0 (no)

Same question, CC1OC(OC2C(OC(=O)[C@]34CCC(C)(C)C[C@H]3C3=CC[C@@H]5[C@@]6(C)CC[C@H](OC7OC(CO)C(O)C(O)C7OC7OC(CO)C(O)C(O)C7O)C(C)(C)[C@@H]6CC[C@@]5(C)[C@]3(C)CC4)OCC(O)C2O)C(O)C(O)C1OC1OCC(O)C(O)C1O (some centres undefined) this time
0 (no)

Same question, `O=C(Nc1ccc(Sc2ccc(/N=N/c3c(O)c(S(=O)(=O)O)cc4cc(S(=O)(=O)O)ccc34)cc2)cc1)c1ccc(/N=N/c2c(O)c(S(=O)(=O)O)cc3cc(S(=O)(=O)O)ccc23)cc1` this time
0 (no)

Same question, `CCOC(=O)Nc1cc2c(c(N)n1)N=C(c1ccc3ccccc3c1)CN2` this time
1 (yes)

Same question, O=C1C=C(C2OC(CO)C(O)C2O)C(=O)N1 (centres undefined) this time
0 (no)

Same question, `CC(=O)Nc1c(C)ccc2c1C(=O)c1ccccc1C2=O` this time
0 (no)

Same question, `CC(=O)c1cccc(NC(=O)C(=O)c2c(O)oc3ccccc3c2=O)c1` this time
0 (no)

Same question, `CCOCN/C(N)=N\C#N` this time
0 (no)

Same question, `CC1(C)N=C(N)N=C(N)N1c1cccc(Cl)c1` this time
0 (no)

Same question, CC(NC(=O)C(N)Cc1ccc(O)cn1)C(=O)O (centres undefined) this time
0 (no)

Same question, `O=[N+]([O-])c1ccc(-c2nn3c(C45CC6CC(CC(C6)C4)C5)nnc3s2)c(Cl)c1` this time
0 (no)

Same question, `Cc1nc2nnc(C)n2c2c1C(=O)Nc1ccccc1N2` this time
0 (no)

Same question, `N=C(NNS(=O)(=O)c1ccccc1)Oc1ccc(Br)cc1Br` this time
0 (no)

Same question, `c1ccc2c(c1)nnn1c3cnccc3nc21` this time
0 (no)

Same question, NC(CNO)C(=O)O (centres undefined) this time
0 (no)

Same question, Clc1ccc(C(c2ccccc2Cl)C(Cl)Cl)cc1 (centres undefined) this time
0 (no)

Same question, `CN(C)c1n2c3cc([N+](=O)[O-])ccc3[n+]3c(N(C)C)n4ccccc4c3c2c2cccc[n+]12.[O-][Cl+3]([O-])([O-])[O-].[O-][Cl+3]([O-])([O-])[O-]` this time
0 (no)

Same question, COc1cc([C@@H]2c3[nH]c4ccccc4c3C(Nc3ccc([N+](=O)[O-])cc3)[C@H]3COC(=O)N23)cc(OC)c1O (some centres undefined) this time
1 (yes)

Same question, `O=C(NNCC(F)(F)F)c1ccncc1` this time
0 (no)

Same question, `CCOC(=O)CC(=O)Nc1cccc2sc3ncccc3c(=O)c12` this time
0 (no)

Same question, `c1ccc(P(=Nc2ccccc2N=P(c2ccccc2)(c2ccccc2)c2ccccc2)(c2ccccc2)c2ccccc2)cc1` this time
1 (yes)

Same question, `O=C(C#Cc1ccccc1)NC/C=C/c1ccccc1` this time
0 (no)

Same question, CN1CN(c2ccccc2)C2(CCN(C3Nc4ccccc4O3)CC2)C1=O (centres undefined) this time
0 (no)

Same question, `COC(=O)[C@@H]1Cc2ccc(OC)c(c2)OCCC(=O)N1` this time
0 (no)

Same question, Nc1cc(C2CCCc3c2[nH]c2ccccc32)ccc1O (centres undefined) this time
0 (no)

Same question, CCOC(=O)C1=C(C)N(NC(=O)Nc2ccccc2)C2(N)N(NC(=O)Nc3ccccc3)C(C)=C(C(=O)OCC)C12C#N (centres undefined) this time
0 (no)

Same question, `NC1=NS(=O)(=O)Nc2nc(-c3cccs3)[nH]c21` this time
0 (no)

Same question, CC1c2ccccc2Cn2cc3c(c21)C(=O)c1cccc(OP(=O)(O)OCc2ccccc2)c1C3=O (centres undefined) this time
0 (no)
